# target entity: Phospholipase D1 (Homo sapiens)
# protocol: purified PLD1 inhibitor potency, IC50, confirmation, biochemical, concentration response (AID 743390)
# measurement conditions: purified human PLD1 enzyme activity assay
Entries and their IC50

structure: O=C(NCCN1CCC2(CC1)C(=O)NCN2Cc1cccnc1)c1ccc2ccccc2c1
value reported: 20 µM

Could you now look at the following compound, please?
Prompt: So what does the record say about IC50 for O=C(NCCN1CCC2(CC1)C(=O)NCN2Cc1cccnc1)c1cc2ccccc2o1 ?
Response: 20 µM
